Values from PubChem BioAssay (NCI)

Test: NCI Yeast Anticancer Drug Screen. Data for the bub3 strain (AID 167)
Conditions: S. cerevisiae bub3 mutant strain, at 50.0 µM, stronger effect = higher value
The panel holds about 79,000 compounds, 15% with a hit somewhere; the sample as a whole holds those more often. Activity calls are given as the source filed them. Cut-off read from the data, not from the text of the source: active = growth inhibition above about 70%; inactive = the rest.
metricName: growth inhibition

Solved cases (2 shown):
-- ask Dear colleague, I am looking for the recorded growth inhibition of the following compound: CCOC(=O)c1ccc(N=C2C(=S)N(c3ccc(C(=O)OCC)cc3)C(=N)N2/N=C/c2ccccc2)cc1
-- reply 31.9% (inactive)

-- ask Could you tell me which growth inhibition is on file for C/C(=N/NC(=O)CC#N)c1ccccc1 ?
-- reply 27.7% (inactive)

Now examine the next entry.
-- ask Tell me the measured growth inhibition of CC(C)C(N)C(=O)Nc1nncs1 (stereo not drawn) , please.
-- reply -33.6% (inactive)
